test system: LXRb homodimer (NR concentration 270 nM); test: PBM binding z-score (relative to random genomic background probes); higher = stronger binding; sequences stand for … in GC…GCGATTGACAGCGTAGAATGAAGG
Below, each entry is listed alongside its reported PBM binding z-score.
Lab note: jot down the number only; don't add units.

Recorded results for 5 sequences are shown here.
CCTTACGGGTCACTGACAGGATATAGCATTTGGA; -0.185
AGAATGCGGTTACCAAAGATCAGGGAAACGCTTG; -0.992
GCTGCTAGGTCAGGTCGGTCAGCTAACGGGTACG; -0.437
AGAATGAGGTTATAGGTAGATCAGGGAAGAAAGT; 0.41
TCACATAGGTAAACAGGTGAAAGTCCGTAAGTTA; -0.368

Give LXRb homodimer (NR concentration 270 nM) PBM binding z-score for the following sequence: `AGAACGAGGCCAATGAGTTGATAGCACGGGTGGC`
-0.913

Give LXRb homodimer (NR concentration 270 nM) PBM binding z-score for the following sequence: `CAAACTAGGTCAAGAGGTGAAAGTCCGCTTCCCG`
0.24

Give LXRb homodimer (NR concentration 270 nM) PBM binding z-score for the following sequence: `ATCTCTAGGTAAAGTTCCGTGAAAGATCGATAGA`
0.829

* * *

system: FXR:RXRa (NR concentration 270 nM, RXRa partner concentration 90 nM); assay: PBM binding z-score (relative to random genomic background probes); higher = stronger binding; sequences stand for … in GC…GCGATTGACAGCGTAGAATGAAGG
Assign satisfied to entries whose PBM binding z-score meets or exceeds 2; assign not satisfied to the rest.

See these solved cases before continuing.
TCTTGTAGATCAAAGGTTAAAAAAGCCGAAGCCT; not satisfied
TAGCCTAGGTCAGATCGGCCCAGTATACGCTATA; not satisfied
ACTCGGCGGACAAAGGTCAGAGCTACGCCAGTGA; satisfied
TGATATAGGTAAAAGGTGAAAGTCGGTGTGGTAA; not satisfied
AGAACGAGGGCACGCTGAGTTGATAGCGGAGTAG; not satisfied

// next entry
Would you say `CGTACAAGGTCAAGGTCAGTGAAAGAGACTCGAA` shows PBM binding z-score at minimum 2?
satisfied

* * *

tested on: RARa:RXR (NR concentration 270 nM, RXRa partner concentration 90 nM); experiment: PBM binding z-score (relative to random genomic background probes); higher = stronger binding; sequences stand for … in GC…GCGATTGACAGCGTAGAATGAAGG
Below, each entry is listed alongside its reported PBM binding z-score.
Lab note: jot down the number only; don't add units.

CCGAGTACGTTATGGGGCATTCAGGCAACGGTGA; -0.541
CTAACTAGGTCATCCAGGACAGTGAATACATTGA; 2.83
ATAATGAGGTTATTAAGATCAGGGAATTGCGGTC; 1.76

Give RARa:RXR (NR concentration 270 nM, RXRa partner concentration 90 nM) PBM binding z-score for the following sequence: `ATCTCTAGGTAACGTTCAGTGAAAGATCGATAGA`
0.445

Give RARa:RXR (NR concentration 270 nM, RXRa partner concentration 90 nM) PBM binding z-score for the following sequence: `AGAACGAGGGCACGCTGAGGTGATAGCAGAGTAG`
1.66

Give RARa:RXR (NR concentration 270 nM, RXRa partner concentration 90 nM) PBM binding z-score for the following sequence: `GCTAGCAGGCCATTTGCGTCACTCAATGACGGGC`
-0.774

* * *

test system: RARg:RXRa (NR concentration 270 nM, RXRa partner concentration 90 nM); assay: PBM binding z-score (relative to random genomic background probes); higher = stronger binding; sequences stand for … in GC…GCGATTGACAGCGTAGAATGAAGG
readout: PBM binding z-score
Lab note: jot down the number only; don't add units.

Recorded results for 2 sequences are shown here.
CCGCCTAGGTCAGGGCCAGTATAGGAGGAACGTT; 2.86
ATCTCTAGGTAACAAGTTCAGCGAAAGAGAGGAC; 2.04

Respond only with PBM binding z-score recorded for `CCGAGTAGGTTTTGGGGCATTCAGGCAACGGTGA`
-0.245

Respond only with PBM binding z-score recorded for `AGAACGAGGGCACACTGAGTTGATAGCAGAGTAG`
1.64

Respond only with PBM binding z-score recorded for `TAGCCTAGGTCTGATCGGGCCAGTATACGCTATA`
-0.244

Respond only with PBM binding z-score recorded for `TTACCAAGGTGAAGGTCGTTTATCCCTCTGTAGA`
1.2

Respond only with PBM binding z-score recorded for `CCTGCTAGGTCAATGCTCAGCTAAAGCAGCTCGC`
3.14

Respond only with PBM binding z-score recorded for `CGTCCAAGGTCAGTGCTAGGTCAGTGAAAGCATT`
6.51

Respond only with PBM binding z-score recorded for `AGTCAAAGTTCACTAGGTAACTTAAGATTCAGCT`
4.86

Respond only with PBM binding z-score recorded for `GCTTGTAGATCAAGGTAAAGAAAGACTAAGCTAA`
-0.145

Respond only with PBM binding z-score recorded for `ACAGACAGGTGAGGGAAGGTAACTCAGCTGGACG`
0.445

Respond only with PBM binding z-score recorded for `TGTCAAAGTGCAAAGGTAACGTAAGTATCCACAC`
2.55

* * *

Below, each entry is listed alongside its reported PBM binding z-score.
test system: THRa homodimer (NR concentration 90 nM); test: PBM binding z-score (relative to random genomic background probes); higher = stronger binding; sequences stand for … in GC…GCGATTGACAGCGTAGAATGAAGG
Lab note: jot down the number only; don't add units.

Respond only with PBM binding z-score recorded for `TCAGACAGGTGAAGGTAACTCAGGTACGCAGTCG`
0.516

Respond only with PBM binding z-score recorded for `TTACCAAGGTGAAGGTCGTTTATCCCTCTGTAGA`
1.18

Respond only with PBM binding z-score recorded for `TCATATAGGTAAACAGGTGAAAGTTCGTAAGTTA`
0.587

Respond only with PBM binding z-score recorded for `CCTACTGGGCCATCAGGTCAGTGATATCAACGTT`
1.78

Respond only with PBM binding z-score recorded for `AGTCAAAGTTCATCTAGGTAACGTCAGATATGCT`
0.387

Respond only with PBM binding z-score recorded for `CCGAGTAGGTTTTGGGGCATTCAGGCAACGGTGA`
0.467

Respond only with PBM binding z-score recorded for `ATAGACAGGTGATGAAGGTAACTCAGGCTATCAT`
0.156

Respond only with PBM binding z-score recorded for `AGTTACGGGTCAACGAGGTTATAGCACGCGTATA`
1.18

Respond only with PBM binding z-score recorded for `TCTCGAAGGACACGAAGGTCAGAGCTTTCCAGAG`
0.331

Respond only with PBM binding z-score recorded for `AATACAGCGTCACTAGGCCAGAGTAGGTACGAAT`
-0.342

Respond only with PBM binding z-score recorded for `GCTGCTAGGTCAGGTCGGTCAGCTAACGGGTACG`
0.932

Respond only with PBM binding z-score recorded for `TTGAGTAGGTTAGGGGCATTCAGAATGGCGTCGA`
1.29

* * *

tested on: THRa homodimer (NR concentration 90 nM); test: PBM binding z-score (relative to random genomic background probes); higher = stronger binding; sequences stand for … in GC…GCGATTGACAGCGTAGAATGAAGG
readout: PBM binding z-score

Recorded results for 5 sequences are shown here.
CGTCAAAGTTCAACTAAGGTAAAGTAAAGCACGC; 1.49
TCTAGCAGGCCAGAGGGTCACGCAAGAGGTACGG; -0.0703
TCGAGTAGGTTAGGGGCAATCAGAATGGCGTCGA; 0.262
ACAGACAGGTGAGAGAAGGTAACTCAGCTGGACG; -0.219
ATCCAAAGGTCGTGAGGTGAGTATACAGAAAGGC; 1.97

Respond only with PBM binding z-score recorded for `TGTTGTAGATCAAAGGTTAAGAAAGCCGAAGCCT`
-0.597

Respond only with PBM binding z-score recorded for `CAAACTAGGTCACCGGAAGGTTAAAGTCCGCATG`
2.36

Respond only with PBM binding z-score recorded for `CCTACTGGGCCATCAGTTCATTGATATCAACGTT`
0.333

Respond only with PBM binding z-score recorded for `CCTGCTAGGTCATGCTCAGCTAATCTACAGTATG`
0.87

Respond only with PBM binding z-score recorded for `TCATGTAGATCAAGCAGGTTAAGAAAGCCTGAGT`
-0.412

* * *

test system: LXRa:RXRa (NR concentration 270 nM, RXRa partner concentration 90 nM); assay: PBM binding z-score (relative to random genomic background probes); higher = stronger binding; sequences stand for … in GC…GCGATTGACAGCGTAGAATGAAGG
Assign YES to entries whose PBM binding z-score meets or exceeds 3; assign NO to the rest.

Would you say `CCTACTGGCCCATTCAGAGGTCATTGATCATATG` shows PBM binding z-score at minimum 3?
YES

Would you say `ACTATTAGTTGAGACCAGGGCAACCGATAGGTTG` shows PBM binding z-score at minimum 3?
NO

Would you say `ACTAGTTGGTCAGGTGAGGTCACACACAATTCGG` shows PBM binding z-score at minimum 3?
YES

Would you say `TCGCCTAGGTCATTGGGCCAGTATAGTACGCATC` shows PBM binding z-score at minimum 3?
NO

Would you say `TCTTGTAGATCAACCAGGTTAAGAAAGCCTGAGT` shows PBM binding z-score at minimum 3?
NO

Would you say `AGACCAAGGTGATCGTGAGGTCGTTGATACTAAC` shows PBM binding z-score at minimum 3?
NO

Would you say `CGCCAAAGTTCAACTAAGGTAACGTAAAGCACGC` shows PBM binding z-score at minimum 3?
YES

Would you say `ACCAGTTGGTCAGCTGAGGTCACACACAATTCGG` shows PBM binding z-score at minimum 3?
YES

Would you say `CCGCGGAGGACAACAGGAGGTCAGAGCTGCCAGA` shows PBM binding z-score at minimum 3?
NO

Would you say `AGAATGAGGTTAAGGTCAGGGAAACAGAATACAT` shows PBM binding z-score at minimum 3?
YES

Would you say `CCTATTACTTGACCATAAGGGCAACCGAAGCTCG` shows PBM binding z-score at minimum 3?
NO

The origin of these recorded values is the supplement of paper PMC6555819.
